Test: NCI Yeast Anticancer Drug Screen. Data for the rad50 strain (AID 155);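 further: 0% = growth of vehicle-only cultures of the same strain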
Details: S. cerevisiae rad50 strain growth inhibition; at 50.0 µM; active compounds read high
Description: Growth inhibition of yeast strains with defined genetic alterations is measured as a screen for potential anti-cancer activity. Selected strains with alterations in DNA damage repair or cell cycle control were exposed to compounds and growth inhibition was measured relative to vehicle treated controls. The strain used in this assay is rad50
About 79,000 compounds went through this panel and 15% of them were active in at least one assay; those are over-represented in the sample as a whole.

compound: Cn1c(CC(O)c2nc3ccccc3n2C)nc2ccccc21 (stereo not drawn)
result_unit: %
growth inhibition: -18.7
//
compound: COc1ccc(C=C2C(=O)OC(C)(C)OC2=O)cc1OC
result_unit: %
growth inhibition: -6.7
//
compound: CCC(CC)NCCCNc1cc(OC)cc2cccnc12
result_unit: %
growth inhibition: 20.8
//
compound: CCCCCCCCCCCC(=O)OCC
result_unit: %
growth inhibition: 26.8
//
compound: CCCC(=O)Oc1cc(C)ccc1C(C)(C)C
result_unit: %
growth inhibition: -17.9
//
compound: NC(=O)C1CCCN(C2OC(COP(=O)(O)OP(=O)(O)OCC3OC(n4cnc5c(N)ncnc54)C(OP(=O)(O)O)C3O)C(O)C2O)C1 (stereo not drawn)
result_unit: %
growth inhibition: 5.85
//
compound: OC(CCl)CN1CCN(CC(O)CCl)CC1 (stereo not drawn)
result_unit: %
growth inhibition: -3.05
//
compound: CCOc1ncc(C(=O)c2ccc(C)cc2)c(OCC)n1
result_unit: %
growth inhibition: -8.55
//
compound: O=C(Nc1ccccn1)OCCCl
result_unit: %
growth inhibition: -1.6
//
compound: COC(=O)C1OCOC2C(CO)OCOC12 (stereo not drawn)
result_unit: %
growth inhibition: 6.8
//
compound: Nc1ccc(Cl)cc1Br
result_unit: %
growth inhibition: 6.35
//
compound: CN(C)NC(=O)Nc1cccc2ccccc12
result_unit: %
growth inhibition: -25.2
//
compound: Cc1ccccc1-n1c(C)nc(-c2ccccc2)cc1=O
result_unit: %
growth inhibition: -23.4

----------
assay: NCI Yeast Anticancer Drug Screen. Data for the bub3 strain (AID 167); conditions: S. cerevisiae bub3 mutant strain, at 50.0 µM, active compounds read high
This is part of a sample that, as a whole, favours compounds with a hit. Of some 79,000 tested, about 15% had one in any assay.
Parameter: growth inhibition. Scope: all listed entries.

molecule: Cn1nnnc1CC(=O)O
growth inhibition (%): -2.05
--
molecule: Cc1c(C(=O)O)c(-c2ccc([N+](=O)[O-])cc2)c(C=O)n1-c1ccccc1
growth inhibition (%): 25.7
--
molecule: CC1N(N2C(=O)CS(=O)(=O)C2C)C(=O)CS1(=O)=O (stereo not drawn)
growth inhibition (%): 1.35
--
molecule: CN(C)S(=O)(=O)c1cccc([N+](=O)[O-])c1
growth inhibition (%): -6.3
--
molecule: COc1ccc(NCc2cnc3nc(N)nc(N)c3c2C)cc1
growth inhibition (%): 1.85
--
molecule: CC1c2c(Cl)nc3ccccc3c2Oc2c1c(Cl)nc1ccccc21
growth inhibition (%): 5.1
--
molecule: OC1(CCC2OCCO2)c2ccccc2-c2ccccc21
growth inhibition (%): 15.8
--
molecule: CC1(C)CC(=O)c2c(N)n[nH]c2C1
growth inhibition (%): 1.35
--
molecule: COC(=O)c1ccccc1N(C(=O)c1ccccc1)c1ccccc1C
growth inhibition (%): -11.3
--
molecule: C/C(=C/CCl)[N+](=O)[O-]
growth inhibition (%): -8.95
--
molecule: CCOC1(C)OC2OC(COC(C)=O)C(OC(C)=O)C(OC(N)=O)C2O1 (stereo not drawn)
growth inhibition (%): -1.15
--
molecule: O=C1CSC(=O)N1
growth inhibition (%): -38
--
molecule: CC1(CCl)Nc2ccccc2C(=O)N1c1ccccc1 (stereo not drawn)
growth inhibition (%): 28.4
